tested on: M14 melanoma; assay: NCI-60 one-dose screen, 48 h; conditions: 10 µM
The panel holds about 83,000 compounds, 20% with a hit somewhere; the sample as a whole holds those more often. Activity calls are given as the source filed them. How the source made its calls: active means growth percent below 10; inactive means the rest.
Please answer using one outcome listed in active, inactive

O=C(Nc1cccc(-n2cc(-c3ccncc3)c(-c3ccc(O)c(Cl)c3)n2)c1)c1ccc(N2CCOCC2)c(C(F)(F)F)c1 | inactive
Cc1cc(N(CCCNc2ccnc3cc(Cl)ccc23)Cc2ccc3c(c2)OCO3)nc(N2CCOCC2)n1 | active
O=C(Nc1ccncc1)C(=O)c1cn(S(=O)(=O)c2ccc(F)cc2)c2ccccc12 | inactive
Cc1cc(=O)[nH]c(N/N=C/c2ccccc2O)n1 | inactive
O=C(Nc1ccncc1)C(=O)c1cn(S(=O)(=O)c2cccc3ccccc23)c2ccccc12 | inactive

Input: Would you mind telling me which call this test gave "Nc1ccc2cc(S(=O)(=O)O)cc(O)c2c1N=Nc1ccc(F)cc1" ?
Output: inactive

* * *

test system: M14 melanoma; assay: NCI-60 one-dose screen, 48 h; details: 10 µM
Compounds without any hit were thinned out: in the full panel of roughly 83,000, 20% have a hit. The source made the active and inactive calls. How the source made its calls: active means growth percent below 10; inactive means the rest.
Please answer using one outcome listed in Y for active, N for inactive

Please review the following examples before continuing.
O=C(N/N=C/c1cc2ccccc2c2ccccc12)c1cc(O)c(O)c(O)c1 | N
O=C(Nc1ccncc1)C(=O)c1cn(S(=O)(=O)c2cc(Cl)cc(Cl)c2)c2ccccc12 | N
CCN1CCCC1CNC(=O)c1ncc(-c2ccc(C(F)(F)F)cc2)c(NC2CCCCCC2)n1 (stereo not given) | N
CCCCCCNC(=O)Oc1ccc(/C(=C(/CC)Cc2ccccc2)c2ccc(OCCN3CCCCC3)cc2)cc1 | N
CSc1nn(-c2ccccc2)c2ncnc(Oc3ccc(C)cc3)c12 | N

Input: Would you mind telling me which call this test gave "O=C1/C(=C\c2ccc(F)cc2)CN(C(=O)c2ccccc2F)C/C1=C\c1ccc(F)cc1" ?
Output: Y

Input: Would you mind telling me which call this test gave "COc1cc(NC(=O)CCSc2nc3ccc(Cl)cc3c(=O)n2Cc2ccccc2)cc(OC)c1OC" ?
Output: N

Input: Would you mind telling me which call this test gave "Cc1ccc(-c2n[nH]c(=O)c3noc(-c4ccc(C)cc4)c23)cc1" ?
Output: N

* * *

tested on: IGROV1 ovarian; assay: NCI-60 one-dose screen, 48 h; settings: 10 µM
Compounds without any hit were thinned out: in the full panel of roughly 83,000, 20% have a hit. Active and inactive are the calls of the source. Rule for the calls: active = growth percent below 10; inactive = the rest.
Please answer using one outcome listed in y = active, n = inactive

Please review the following examples before continuing.
Nc1cc2c(cc1Cl)-c1ccc([N+](=O)[O-])cc1/C2=N\O | n
CCN1CCN(c2nc3ccccc3c3c(=O)c4ccccc4sc23)CC1 | n
O=C(Nc1cccc(-n2cc(-c3ccncc3)c(-c3ccc(O)c(Cl)c3)n2)c1)Nc1ccc(Cl)c(Cl)c1 | y
O=C(Nc1cccc(-n2cc(-c3ccncc3)c(-c3ccc(O)c(Cl)c3)n2)c1)c1cc(C(F)(F)F)cc(C(F)(F)F)c1 | n
N=c1c2c(-c3ccccc3)c(-c3ccccc3)n(Cc3ccccc3)c2ncn1CCCO | y
Nc1nccc(Nc2ccccc2)n1 | n
COc1ccc2nc3cc(Cl)ccc3c(NCCNCC(C)O)c2c1 (configuration not stated) | n
COc1ccc2c(c1)sc1nc(-c3ccccc3)c(-c3ccsc3)n12 | n
CCN1CCC2(CC1)OC(c1ccccc1)C(c1ccccc1)O2 (configuration not stated) | n
CCCCCCCC(C)NCCO (configuration not stated) | n

Input: Would you mind telling me which call this test gave "CN(C)CCN1C(=O)c2cccc3c(-c4ccc5ncn(C6CCCCC6)c5c4)ccc(c23)C1=O" ?
Output: n

Input: Would you mind telling me which call this test gave "Nc1c(C(=O)Nc2ccccc2Cl)sc2nc3c(cc12)C(=O)CCC3" ?
Output: n

Input: Would you mind telling me which call this test gave "COc1ccc2c(c1)C(=O)c1c-2c(OCCN(C)C)nc2cc(OC)c(OC)cc12" ?
Output: n

Input: Would you mind telling me which call this test gave "Cc1c(Cl)cccc1NC(=O)c1sc2nc3c(cc2c1N)C(=O)CCC3" ?
Output: y

Input: Would you mind telling me which call this test gave "CC(C)(C#N)Nc1ccccc1" ?
Output: n

Input: Would you mind telling me which call this test gave CC(C)=NNc1ncnc2c1ncn2C1OC(CO)C(O)C1O (configuration not stated) ?
Output: n

Input: Would you mind telling me which call this test gave "Nc1ncn([C@@H]2O[C@H](CO)[C@@H](O)[C@H]2O)c(=O)n1" ?
Output: n

* * *

growth for assorted compounds
tested on: HCT-15 colon; assay: NCI-60 one-dose screen, 48 h (100 = growth as untreated, 0 = no growth, -100 = all killed); conditions: 10 µM
Compounds without any hit were thinned out: in the full panel of roughly 83,000, 20% have a hit.
Please state the figure in %; there is no need to write the unit.

Example cases with answers are listed next.
Clc1ccc(Sc2nc(NC3CC3)nc(Sc3ccc(Cl)cc3)n2)cc1 | 71.3
CC12O[C@H](C[C@@H](O)[C@H]1O)n1c3ccccc3c3c4c(c5c6ccccc6n2c5c31)C(=O)N(CCCN)C4=O | 96.4
FC(F)(F)c1ccc2nc(-c3nc(-c4ccccc4)n4ccccc34)[nH]c2c1 | 60.4

Record "Clc1ccc(Nc2ccnc(NCCCNc3ccnc4cc(Cl)ccc34)n2)cc1" has HCT-15 colon growth equal to -60.6

* * *

system: HCT-15 colon; test: NCI-60 one-dose screen, 48 h; settings: 10 µM
Compounds without any hit were thinned out: in the full panel of roughly 83,000, 20% have a hit. The source made the active and inactive calls. Rule for the calls: active = growth percent below 10; inactive = the rest.
Please answer using one outcome listed in TRUE (active), FALSE (inactive)

Please review the following examples before continuing.
Cc1nc2oc3ccccc3c(=O)c2cc1C(=O)NCc1ccccc1 | FALSE
O=C1/C(=C\c2ccc(F)cc2)CN(C(=O)c2ccc([N+](=O)[O-])cc2)C/C1=C\c1ccc(F)cc1 | TRUE
COc1ccc2c(c1)N(CCO)C1=C(C(=O)OC1)C2c1ccc(OC)c(OC)c1 (stereo not given) | FALSE
CN(C)CCN1C(=O)c2cccc3cc(N)cc(c23)C1=O | FALSE
c1ccc2c(c1)oc1c3c(ccc12)NCCC3 | FALSE
CN1CCC2(CC1)NC(=O)c1c(c3ccc(Cl)c(Cl)c3n1C)C2C#N (stereo not given) | FALSE
COc1cc(Cl)cc(-c2nn(-c3cccc(NC(=O)c4ccc(N5CCOCC5)c(C(F)(F)F)c4)c3)cc2-c2ccncc2)c1 | FALSE
O=C1/C(=C\c2ccc(F)cc2)CN(C(=O)c2ccccc2)C/C1=C\c1ccc(F)cc1 | TRUE
Fc1cc(C(F)(F)F)ccc1-c1cncnc1NC1CCCCCC1 | FALSE
COc1ccc(/C=C/C(=O)Nc2ccc(-c3nc4ccc(OC)cc4s3)cc2)cc1 | FALSE

Input: Would you mind telling me which call this test gave "O=C1/C(=C\c2ccc(F)cc2)CN(C(=O)c2ccccc2F)C/C1=C\c1ccc(F)cc1" ?
Output: TRUE

Input: Would you mind telling me which call this test gave "COc1ccc2c(c1)nc(N)c1c3cccnc3cn21" ?
Output: FALSE

* * *

test system: PC-3 prostate; assay: NCI-60 one-dose screen, 48 h (100 = growth as untreated, 0 = no growth, -100 = all killed); conditions: 10 µM
About 83,000 compounds went through this panel and 20% of them were active in at least one assay; those are over-represented in the sample as a whole.
Note to self: growth under 70% means YES, ties and anything higher get NO.

Please review the following examples before continuing.
c1ccc(CO[C@H]2CO[C@H]3[C@@H]2OC[C@H]3OCc2ccccc2)cc1 | NO
CCN(CC)CCNC(=O)c1ccc(NC(C)=O)cc1 | NO
COc1ccc(S(=O)(=O)NCCCNc2nccc(-c3c(-c4ccc(F)cc4)nc4sccn34)n2)cc1 | YES
COc1ccc2c(c1)sc1nc(-c3ccccc3)c(-c3cccnc3)n12 | NO
COC(=O)C1(C)Cc2cc(OC(C)=O)c(OC(C)=O)cc2N1 (stereo not given) | YES

Input: Lab note: confirm whether the reported growth for this compound is below 70%, equality not counting. compound: "COc1cc2nc(Nc3cccc(C(=O)O)c3)nc(N)c2cc1OC"
Output: NO

Input: Lab note: confirm whether the reported growth for this compound is below 70%, equality not counting. compound: "COc1ccc(OC)c(/C=C/c2nnc(Nc3ccc(Cl)cc3)o2)c1"
Output: NO

Input: Lab note: confirm whether the reported growth for this compound is below 70%, equality not counting. compound: COc1ccc(C2CC(c3ccc(N(C)C)cc3)=NN2c2ccc(S(N)(=O)=O)cc2)cc1 (stereo not given)
Output: YES

Input: Lab note: confirm whether the reported growth for this compound is below 70%, equality not counting. compound: CCOCC(=O)C(C#N)c1ccc(Cl)c(Cl)c1 (stereo not given)
Output: NO

Input: Lab note: confirm whether the reported growth for this compound is below 70%, equality not counting. compound: CCN1CCCC1CNC(=O)c1ncc(-c2ccc(C(F)(F)F)cc2)c(NC2CCCCCC2)n1 (stereo not given)
Output: YES
